Sourced from ChEMBL document CHEMBL1131722

target: UniProt:P14780
Sequence (P14780 whole entry): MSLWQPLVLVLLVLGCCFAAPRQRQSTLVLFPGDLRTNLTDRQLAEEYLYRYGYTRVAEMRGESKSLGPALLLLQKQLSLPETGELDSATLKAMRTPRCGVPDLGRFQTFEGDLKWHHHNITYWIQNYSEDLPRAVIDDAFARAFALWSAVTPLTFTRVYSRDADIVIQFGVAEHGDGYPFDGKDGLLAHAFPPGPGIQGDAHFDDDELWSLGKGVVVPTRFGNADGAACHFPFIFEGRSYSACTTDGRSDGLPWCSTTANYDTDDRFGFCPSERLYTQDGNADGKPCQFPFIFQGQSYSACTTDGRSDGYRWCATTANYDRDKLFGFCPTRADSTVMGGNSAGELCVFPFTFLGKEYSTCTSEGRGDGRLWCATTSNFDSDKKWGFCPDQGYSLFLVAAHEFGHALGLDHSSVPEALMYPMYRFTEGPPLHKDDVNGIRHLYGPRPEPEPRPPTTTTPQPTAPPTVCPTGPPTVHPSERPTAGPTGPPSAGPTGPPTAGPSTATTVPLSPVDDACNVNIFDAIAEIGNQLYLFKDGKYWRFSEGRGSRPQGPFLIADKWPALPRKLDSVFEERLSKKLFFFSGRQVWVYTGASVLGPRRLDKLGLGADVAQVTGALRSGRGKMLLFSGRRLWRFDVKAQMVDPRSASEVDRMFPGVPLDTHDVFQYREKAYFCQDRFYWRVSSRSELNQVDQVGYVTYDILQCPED
pKi: −log10 of the molar value.
experimentalReadout: pKi

[[record]]
smilesrecord = "CNC(=O)[C@@H]1CCCN(C(C)=O)CCCCO[C@H](C(=O)NO)[C@@H](CCCc2ccccc2)C(=O)N1"
reportedvalue = 8.22


###

biological target: Stromelysin-1 (Homo sapiens, UniProt P08254)
Sequence (P08254 whole entry): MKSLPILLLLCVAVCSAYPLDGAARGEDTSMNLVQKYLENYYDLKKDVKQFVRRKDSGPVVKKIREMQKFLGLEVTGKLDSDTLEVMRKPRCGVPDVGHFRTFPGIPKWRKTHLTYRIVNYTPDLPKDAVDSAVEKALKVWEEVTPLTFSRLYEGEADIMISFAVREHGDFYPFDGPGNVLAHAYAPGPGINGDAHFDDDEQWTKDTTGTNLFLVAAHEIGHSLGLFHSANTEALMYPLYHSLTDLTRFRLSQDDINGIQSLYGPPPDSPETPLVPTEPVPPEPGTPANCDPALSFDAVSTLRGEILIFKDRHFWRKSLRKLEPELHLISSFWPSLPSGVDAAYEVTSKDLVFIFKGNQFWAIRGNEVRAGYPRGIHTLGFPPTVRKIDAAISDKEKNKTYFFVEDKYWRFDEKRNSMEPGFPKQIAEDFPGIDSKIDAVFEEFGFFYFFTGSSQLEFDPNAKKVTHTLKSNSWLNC
experimentalReadout: Ki (nM)

[[record]]
smilesrecord = "CNC(=O)[C@@H]1CCCN(C(C)=O)CCCCO[C@H](C(=O)NO)[C@@H](CCCc2ccccc2)C(=O)N1"
reportedvalue = 38


###

Molecular target: UniProt:P03956
Sequence (P03956 whole entry): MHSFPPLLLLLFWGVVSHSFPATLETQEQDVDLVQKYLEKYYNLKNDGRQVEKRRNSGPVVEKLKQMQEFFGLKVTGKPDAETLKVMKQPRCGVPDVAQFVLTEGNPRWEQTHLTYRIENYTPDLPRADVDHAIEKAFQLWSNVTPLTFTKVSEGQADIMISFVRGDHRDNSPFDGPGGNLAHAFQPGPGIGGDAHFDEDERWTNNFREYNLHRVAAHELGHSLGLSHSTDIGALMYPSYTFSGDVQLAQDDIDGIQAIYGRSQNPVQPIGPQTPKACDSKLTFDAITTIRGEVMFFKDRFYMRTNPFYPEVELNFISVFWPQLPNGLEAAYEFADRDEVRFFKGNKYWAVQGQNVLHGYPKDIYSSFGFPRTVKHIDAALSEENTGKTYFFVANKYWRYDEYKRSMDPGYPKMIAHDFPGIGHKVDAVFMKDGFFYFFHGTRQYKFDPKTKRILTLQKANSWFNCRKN
Experiment: Inhibition of Matrix metalloprotease-1 (MMP-1)
pKi: −log10 of the molar value.
experimentalReadout: pKi

[[record]]
smilesrecord = "CNC(=O)[C@@H]1CCCN(C(=O)OC(C)(C)C)CCCCO[C@H](C(=O)NO)[C@@H](CCCc2ccccc2)C(=O)N1"
assaysystem = "UniProt:P03956"
experimentalreadout = "pKi"
reportedvalue = 5.97

[[record]]
smilesrecord = "CNC(=O)[C@@H]1CCCN(S(=O)(=O)c2ccccc2)CCCCO[C@H](C(=O)NO)[C@@H](CCCc2ccccc2)C(=O)N1"
assaysystem = "UniProt:P03956"
experimentalreadout = "pKi"
reportedvalue = 6.96

